SYSTEM: mTOR (Homo sapiens, UniProt P42345)
Sequence (P42345 1360-2549 limits assumed): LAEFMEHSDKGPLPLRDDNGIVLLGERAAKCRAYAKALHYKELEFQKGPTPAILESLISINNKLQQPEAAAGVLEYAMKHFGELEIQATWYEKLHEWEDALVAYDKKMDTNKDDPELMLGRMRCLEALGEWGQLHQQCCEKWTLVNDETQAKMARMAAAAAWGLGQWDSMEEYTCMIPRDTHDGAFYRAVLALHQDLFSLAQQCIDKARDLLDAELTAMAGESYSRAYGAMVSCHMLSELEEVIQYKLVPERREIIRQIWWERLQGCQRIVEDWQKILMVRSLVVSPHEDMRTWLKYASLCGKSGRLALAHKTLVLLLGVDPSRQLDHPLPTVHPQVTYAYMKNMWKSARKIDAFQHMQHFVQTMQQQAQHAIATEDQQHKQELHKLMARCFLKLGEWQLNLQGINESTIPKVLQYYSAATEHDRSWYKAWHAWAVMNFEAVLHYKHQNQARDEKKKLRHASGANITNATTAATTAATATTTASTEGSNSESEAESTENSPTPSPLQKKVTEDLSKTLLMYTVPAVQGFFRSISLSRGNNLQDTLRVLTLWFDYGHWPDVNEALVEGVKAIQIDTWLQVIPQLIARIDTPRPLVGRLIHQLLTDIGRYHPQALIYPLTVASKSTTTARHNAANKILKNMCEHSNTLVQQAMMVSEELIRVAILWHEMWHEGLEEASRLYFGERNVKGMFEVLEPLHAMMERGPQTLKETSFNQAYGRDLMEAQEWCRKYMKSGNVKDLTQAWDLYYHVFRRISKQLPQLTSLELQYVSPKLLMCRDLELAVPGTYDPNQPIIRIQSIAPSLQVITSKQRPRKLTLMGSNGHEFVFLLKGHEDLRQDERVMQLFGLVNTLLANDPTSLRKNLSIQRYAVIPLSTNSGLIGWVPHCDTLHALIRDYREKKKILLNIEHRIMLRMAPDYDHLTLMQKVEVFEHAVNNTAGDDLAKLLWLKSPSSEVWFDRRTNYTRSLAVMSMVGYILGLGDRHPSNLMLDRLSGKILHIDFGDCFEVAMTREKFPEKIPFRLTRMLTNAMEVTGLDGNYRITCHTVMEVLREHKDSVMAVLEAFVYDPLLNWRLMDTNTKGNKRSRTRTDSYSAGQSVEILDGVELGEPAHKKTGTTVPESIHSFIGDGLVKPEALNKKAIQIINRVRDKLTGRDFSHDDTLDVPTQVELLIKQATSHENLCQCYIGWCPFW
PROCEDURE_SUMMARY: mTOR enzyme assay (DELFIA, purified FLAG-TOR, His6-S6K substrate)
Assay type: biochemical
Set-up: FLAG
CONDITION_DESCRIPTION: 100 μM ATP, 2 hours
pIC50: −log10 of the molar value.
# pIC50 >= 8 gives y, anything below gives n

Worked cases, answers included:
> print(dat)
                                        mol                               system  category.label
1  CCNC(=O)Nc1ccc(-c2cc(N3CC4CCC(C3)O4)nc(-c3ccc(NC(=O)NCC)cc3)n2)cc1  mTOR (Homo sapiens, UniProt P42345)               y
2  CC(C)Nc1cc(N2C3CCC2COC3)nc(-c2ccc(NC(=O)Nc3ccc(CN4CCCC4)cc3)cc2)n1  mTOR (Homo sapiens, UniProt P42345)               y
3  CN1CCN(Cc2ccc(NC(=O)Nc3ccc(-c4nc(CS(C)(=O)=O)cc(N5CC6CCC(C5)O6)n4)cc3)cc2)CC1  mTOR (Homo sapiens, UniProt P42345)               y
4  CS(=O)(=O)Cc1cc(N2CC3CCC(C2)O3)nc(-c2ccc(NC(=O)Nc3ccc(N4CCNCC4)cc3)cc2)n1  mTOR (Homo sapiens, UniProt P42345)               y
5  O=C(Nc1ccc(-c2nc(C3CCOCC3)cc(N3C4CCC3COC4)n2)cc1)Nc1cccnc1  mTOR (Homo sapiens, UniProt P42345)               y

Turning now to a further record.
Request: Quick check: does `CN(C)CCOc1ccc(NC(=O)Nc2ccc(-c3nc(-c4ccccc4)cc(N4CC5CCC(C4)O5)n3)cc2)cc1` have pIC50 greater than or equal to 8?
Result: n

###

Lab note: pIC50 readings collected with PI3K-alpha (Homo sapiens, UniProt P42336) for the following compounds.
Sequence (P42336 whole entry, species assumed): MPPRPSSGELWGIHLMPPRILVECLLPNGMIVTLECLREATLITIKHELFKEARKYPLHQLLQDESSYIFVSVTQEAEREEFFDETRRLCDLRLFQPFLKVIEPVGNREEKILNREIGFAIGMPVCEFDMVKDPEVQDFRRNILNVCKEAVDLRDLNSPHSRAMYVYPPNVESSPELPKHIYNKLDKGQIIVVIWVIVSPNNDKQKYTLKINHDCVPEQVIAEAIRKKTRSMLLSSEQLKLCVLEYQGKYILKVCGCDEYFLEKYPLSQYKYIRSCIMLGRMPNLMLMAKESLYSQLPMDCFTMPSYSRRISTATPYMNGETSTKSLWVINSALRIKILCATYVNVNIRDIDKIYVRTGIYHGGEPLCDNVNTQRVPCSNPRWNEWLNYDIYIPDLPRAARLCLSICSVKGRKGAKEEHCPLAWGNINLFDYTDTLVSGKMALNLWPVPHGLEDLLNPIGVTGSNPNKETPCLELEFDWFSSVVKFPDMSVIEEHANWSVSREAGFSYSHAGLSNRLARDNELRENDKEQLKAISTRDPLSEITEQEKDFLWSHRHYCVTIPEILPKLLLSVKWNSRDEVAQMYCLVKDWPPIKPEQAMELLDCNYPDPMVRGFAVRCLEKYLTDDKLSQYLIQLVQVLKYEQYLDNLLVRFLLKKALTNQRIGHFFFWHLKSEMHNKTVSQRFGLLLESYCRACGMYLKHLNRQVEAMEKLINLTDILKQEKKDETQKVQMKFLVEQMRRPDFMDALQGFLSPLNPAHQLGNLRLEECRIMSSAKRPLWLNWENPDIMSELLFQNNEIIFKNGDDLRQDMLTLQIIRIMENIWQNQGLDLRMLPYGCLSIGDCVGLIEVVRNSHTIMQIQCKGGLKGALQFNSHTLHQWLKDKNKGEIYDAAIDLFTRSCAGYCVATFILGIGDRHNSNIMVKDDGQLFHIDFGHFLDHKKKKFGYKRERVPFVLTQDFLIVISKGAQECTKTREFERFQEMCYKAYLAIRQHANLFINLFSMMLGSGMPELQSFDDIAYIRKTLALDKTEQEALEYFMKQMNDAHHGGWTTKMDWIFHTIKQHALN
Sequence (P27986 whole entry partner, species assumed): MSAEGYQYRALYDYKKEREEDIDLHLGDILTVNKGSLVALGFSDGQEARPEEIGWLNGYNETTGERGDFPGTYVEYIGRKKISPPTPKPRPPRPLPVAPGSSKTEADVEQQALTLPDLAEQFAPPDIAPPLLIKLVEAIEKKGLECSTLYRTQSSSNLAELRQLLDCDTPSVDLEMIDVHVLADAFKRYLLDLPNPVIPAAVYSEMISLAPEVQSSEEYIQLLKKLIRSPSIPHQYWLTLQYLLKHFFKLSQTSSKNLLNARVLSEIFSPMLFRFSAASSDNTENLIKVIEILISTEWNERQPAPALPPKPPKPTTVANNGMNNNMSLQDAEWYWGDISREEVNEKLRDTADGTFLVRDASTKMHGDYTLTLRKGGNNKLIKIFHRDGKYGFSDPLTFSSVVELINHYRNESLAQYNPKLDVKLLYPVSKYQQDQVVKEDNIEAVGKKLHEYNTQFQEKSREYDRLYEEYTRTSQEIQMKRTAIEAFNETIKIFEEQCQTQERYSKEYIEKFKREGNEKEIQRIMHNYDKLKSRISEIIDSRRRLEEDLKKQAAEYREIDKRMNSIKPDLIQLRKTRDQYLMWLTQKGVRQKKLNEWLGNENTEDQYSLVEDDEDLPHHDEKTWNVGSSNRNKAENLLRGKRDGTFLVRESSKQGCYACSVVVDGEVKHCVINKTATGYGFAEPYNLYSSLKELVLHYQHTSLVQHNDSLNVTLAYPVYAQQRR
Answers are plain numbers, as −log10 of the molar value.

Hi team, please reply with pIC50 for each item in this list.
1. CN(C)CCOc1ccc(NC(=O)Nc2ccc(-c3nc(NCCS(C)(=O)=O)cc(N4C5CCC4COC5)n3)cc2)cc1
2. O=C(Nc1ccncc1)Nc1ccc(-c2nc(N3C4CCC3COC4)cc(N3C[C@@H]4C[C@H]3CO4)n2)cc1
3. O=C(Nc1ccc(-c2nc(N3C4CCC3COC4)cc(N3C4CCC3COC4)n2)cc1)Nc1cccnc1
4. C[C@@H]1CN(c2cc(N3C4CCC3COC4)nc(-c3ccc(NC(=O)Nc4ccncc4)cc3)n2)C[C@H](C)O1
5. C[C@@H]1COCCN1c1cc(N2C3CCC2COC3)nc(-c2ccc(NC(=O)Nc3ccc(C(=O)N(C)C)cc3)cc2)n1

Result:
[5.73, 5.55, 5.95, 5.87, 6.97]

###

SYSTEM: mTOR (Homo sapiens, UniProt P42345)
PROCEDURE_SUMMARY: mTOR enzyme assay (DELFIA, purified FLAG-TOR, His6-S6K substrate)
Type: biochemical
Set-up: FLAG
CONDITION_DESCRIPTION: 100 μM ATP, 2 hours
Hi there, I'd appreciate the recorded pIC50 for every entry that follows.
Answers are plain numbers, as −log10 of the molar value.

Solved cases (5 shown):
> print(dat)
                                        mol  endpoint  reported.measurement
1  CNC(=O)Nc1ccc(-c2nc(N3CC4CCC(C3)O4)cc(N3CC4CCC(C3)O4)n2)cc1     pIC50                  8.15
2  CNC(=O)Nc1ccc(-c2nc(N3CC4CCC(C3)O4)cc(C(F)(F)F)n2)cc1     pIC50                  7.94
3  CS(=O)(=O)CCNc1cc(N2C3CCC2COC3)nc(-c2ccc(NC(=O)Nc3cccnc3)cc2)n1     pIC50                  8.30
4  CC(C)Nc1cc(N2C3CCC2COC3)nc(-c2ccc(NC(=O)Nc3cccnc3)cc2)n1     pIC50                  8.96
5  CN1CCN(Cc2ccc(NC(=O)Nc3ccc(-c4nc(N5C6CCC5COC6)cc(N5C[C@H]6C[C@@H]5CO6)n4)cc3)cc2)CC1     pIC50                  8.00

Hi team, please reply with pIC50 for each item in this list.
1. O=C(Nc1ccc(-c2nc(N3CC4CCC(C3)O4)cc(C(F)(F)F)n2)cc1)NC1CC1
2. CN(C)CCOc1ccc(NC(=O)Nc2ccc(-c3nc(N4C5CCC4COC5)cc(N4C[C@H]5C[C@@H]4CO5)n3)cc2)cc1

Result:
[7.98, 7.92]
